- Tested on: PTZ-induced epileptiform activity in the zebrafish larval optic tectum
- assayExplanation: Local field potential recordings from the optic tectum, power spectral density analysis
- Format: in vivo, zebrafish (Danio rerio)
- cond: MTC, 18 h incubation; 20 mM PTZ; 20–90 Hz band
Would you mind telling me the reported decrease of normalized PSD (PTZ-induced elevation in power spectral density) of each entry?

For orientation, consider the following solved cases.
molecule: CC[C@H](C)C(=O)OC1c2c(ccc3ccc(=O)oc23)OC(C)(C)C1OC(C)=O (some centres unmarked) [hyuganin C]
systemUnderTest: PTZ-induced epileptiform activity in the zebrafish larval optic tectum
measured: 65%

molecule: CC(C)(O)[C@H](O)COc1c2ccoc2cc2oc(=O)ccc12 [oxypeucedanin hydrate]
systemUnderTest: PTZ-induced epileptiform activity in the zebrafish larval optic tectum
measured: 83–89%

molecule: CC(C)(O)[C@H]1Cc2cc3ccc(=O)oc3cc2O1 [nodakenetin]
systemUnderTest: PTZ-induced epileptiform activity in the zebrafish larval optic tectum
measured: 26%

molecule: CC1(C)O[C@H]1COc1c2ccoc2cc2oc(=O)ccc12 [oxypeucedanin]
systemUnderTest: PTZ-induced epileptiform activity in the zebrafish larval optic tectum
measured: 83–89%

molecule: COc1cc2cc(Oc3ccc4ccc(=O)oc4c3)c(=O)oc2cc1O [daphnoretin]
systemUnderTest: PTZ-induced epileptiform activity in the zebrafish larval optic tectum
measured: 88%

Need decrease of normalized PSD (PTZ-induced elevation in power spectral density) for each of these molecules.
1. CC(C)(O[C@@H]1O[C@H](CO)[C@@H](O)[C@H](O)[C@H]1O)[C@H]1Cc2cc3ccc(=O)oc3cc2O1 [nodakenin]
2. CC(C)=CC(O)C/C(C)=C/COc1c2ccoc2cc2oc(=O)ccc12 (centres unmarked) [notopterol]
3. COc1c(OC)c2occc2c2oc(=O)ccc12 [pimpinellin]

1: 77%; 2: 83–89%; 3: 81%

---

- Tested on: PTZ-induced seizure-like behavior (locomotor activity) of zebrafish larvae
- assayExplanation: Larval zebrafish PTZ seizure model, locomotor analysis (behavioral antiseizure activity)
- Assay type: in vivo, zebrafish (Danio rerio)
- cond: 20 mM PTZ, up to MTC
measureName: antiseizure activity in the locomotor assay (in words)

molecule: COc1ccc2ccc(=O)oc2c1CC=C(C)C
systemUnderTest: PTZ-induced seizure-like behavior (locomotor activity) of zebrafish larvae
measured: not active

molecule: O=c1ccc2ccc(O)cc2o1 [umbelliferone, 7-hydroxycoumarin]
systemUnderTest: PTZ-induced seizure-like behavior (locomotor activity) of zebrafish larvae
measured: not active

---

Provide the reported lowered seizure-like behavior of each item.
- System: PTZ-induced seizure-like behavior (locomotor activity) of zebrafish larvae
- assayExplanation: Larval zebrafish PTZ seizure model, locomotor analysis (behavioral antiseizure activity)
- Format: in vivo, zebrafish (Danio rerio)
- cond: abstract summary, highest effect; 20 mM PTZ, 18 h pre-incubation
One number for each entry, in %.

Consider the following illustrative entries.
compound: CC(C)(O)[C@H]1Cc2cc3ccc(=O)oc3cc2O1
unitsText: %
lowered seizure-like behavior: 29

compound: CC[C@H](C)C(=O)OC1c2c(ccc3ccc(=O)oc23)OC(C)(C)C1OC(C)=O (stereo partly shown)
unitsText: %
lowered seizure-like behavior: 35

compound: COc1c(OC)c2occc2c2oc(=O)ccc12
unitsText: %
lowered seizure-like behavior: 60

compound: CC(C)=CC(O)C/C(C)=C/COc1c2ccoc2cc2oc(=O)ccc12 (stereo not shown)
unitsText: %
lowered seizure-like behavior: 54

compound: CC(C)(O)[C@H](O)COc1c2ccoc2cc2oc(=O)ccc12 [oxypeucedanin hydrate]
unitsText: %
lowered seizure-like behavior: 74

For every listed record, write down its lowered seizure-like behavior.
1. CC1(C)O[C@H]1COc1c2ccoc2cc2oc(=O)ccc12
2. COc1cc2cc(Oc3ccc4ccc(=O)oc4c3)c(=O)oc2cc1O

[38, 65]
